pIC50: −log10 of the molar value.
Below are compounds with their pIC50 as measured on Kinesin-like protein KIFC1 (Homo sapiens, UniProt Q9BW19).
Sequence (Q9BW19 whole entry): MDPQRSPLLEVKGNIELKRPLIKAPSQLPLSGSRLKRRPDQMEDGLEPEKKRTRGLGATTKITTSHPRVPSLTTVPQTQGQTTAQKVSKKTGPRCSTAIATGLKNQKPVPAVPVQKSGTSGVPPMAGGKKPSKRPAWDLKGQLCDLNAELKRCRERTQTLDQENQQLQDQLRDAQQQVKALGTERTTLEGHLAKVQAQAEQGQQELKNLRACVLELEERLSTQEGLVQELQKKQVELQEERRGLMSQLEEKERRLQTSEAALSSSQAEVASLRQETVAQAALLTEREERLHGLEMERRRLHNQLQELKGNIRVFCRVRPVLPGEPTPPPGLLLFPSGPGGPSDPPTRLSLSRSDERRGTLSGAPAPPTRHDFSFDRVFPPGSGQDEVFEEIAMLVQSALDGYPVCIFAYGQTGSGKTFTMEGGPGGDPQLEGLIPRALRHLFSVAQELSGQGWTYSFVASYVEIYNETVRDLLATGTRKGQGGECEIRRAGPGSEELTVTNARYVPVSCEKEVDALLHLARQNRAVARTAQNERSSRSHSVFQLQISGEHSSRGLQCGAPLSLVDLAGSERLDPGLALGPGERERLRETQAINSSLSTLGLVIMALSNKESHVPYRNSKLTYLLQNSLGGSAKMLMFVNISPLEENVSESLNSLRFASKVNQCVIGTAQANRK
ENDPOINT: pIC50

CCc1nc(NC(=O)[C@@H](N)CNC(=O)c2cccc(-c3noc(C)n3)c2)sc1C(C)(C)C [US20250084074, Example 161]
5.67

I: Cc1nnn(-c2ccc3ccnc(NCCC(=O)Nc4nc(C)c(C(C)(C)C)s4)c3c2)n1 [US20250084074, Example 58]
II: CCCc1nc(-c2cnc(NC(=O)CCNc3nccc4ccc(-c5noc(C)n5)cc34)s2)no1 [US20250084074, Example 119]
Inquiry: Which item exceeds the other in pIC50, I or II ? # respond with the chosen item's label
Reply text: I
(I: 7.85, II: 7.17)
